These data points were gathered from paper PMC12040169.

assay: in vitro; details: human, hela cells, % viability
reportedMetric: viability at 28.5 h, 10 µM
Show the value, then the unit it is measured in.

Examples from the recorded data:
[[record]]
molecule = "Cc1cc(N2CCN(c3ccccc3)CC2)nc(-c2ccccc2O)n1"
testresult = "92.1%"

[[record]]
molecule = "CCSC(C)CC1C/C(=N/O)c2c(C)noc2C1 (centres unmarked)"
testresult = "88.4%"

[[record]]
molecule = "CCOC(=O)N1COC[C@@H]1C(=O)O"
testresult = "81.5%"

[[record]]
molecule = "CCN(Cc1c[nH]nc1-c1ccc(OC)cc1F)CC1CCCO1 (centres unmarked)"
testresult = "102%"


Next:
Which measured viability at 28.5 h, 10 µM value corresponds to CC(Cc1c[nH]c2ccccc12)NC(=N)NC(=N)N (centres unmarked) [CBK268251C] ?
91.7%
